Each record here notes measured fold induction at 50 µM.
- System: S. aureus strain USA300-0114
- measurement-protocol: AK assay 384-well format, Prestwick library screening
- Assay type: cell-based, Staphylococcus aureus
- assay-context: Staphylococcus aureus, USA300, 3 h, 50 μM final drug concentration; planktonic; […]; read-out: AK-based Prestwick Library Screening Results, S. aureus (fold increase in extracellular AK activity)
Structures can show the parent of a compound that is named as a salt.
Just the number, please, no unit attached.

{"columns": ["compound", "experimental-system", "fold induction at 50 µM"],
 "data": [
  ["CCC1(CC)C(=O)C=CNC1=O", "S. aureus strain USA300-0114", 0.6],
  ["c1cncc([C@@H]2CCCCN2)c1", "S. aureus strain USA300-0114", 0.6],
  ["CNC[C@H](O)[C@@H](O)[C@H](O)[C@H](O)CO", "S. aureus strain USA300-0114", 0.5],
  ["CO[C@H](C)[C@](O)(C(=O)OCC1=CCN2CC[C@H](O)[C@@H]12)C(C)C", "S. aureus strain USA300-0114", 1.4],
  ["C=C(C)[C@@H]1[C@H]2OC(=O)[C@@H]1[C@]1(O)C[C@H]3O[C@]34C(=O)O[C@H]2[C@]14C", "S. aureus strain USA300-0114", 0.6],
  ["C=C1[C@@H]2CC[C@H]3[C@]4(C)C[C@H](O[C@@H]5O[C@H](CO)[C@@H](OS(=O)(=O)O)[C@H](OS(=O)(=O)O)[C@H]5OC(=O)CC(C)C)C[C@@H](C(=O)O)[C@H]4CC[C@]3(C2)[C@@H]1O [Atractyloside potassium salt]", "S. aureus strain USA300-0114", 0.7],
  ["CN1C(C)(C)CCCC1(C)C [Pempidine tartrate]", "S. aureus strain USA300-0114", 1.1],
  ["CCN1C[C@]2(COC)CC[C@H](O)[C@]34C1[C@@](O)([C@@H](OC)[C@H]23)[C@@]1(O)C[C@H](OC)[C@H]2C[C@@H]4[C@@H]1[C@H]2OC", "S. aureus strain USA300-0114", 0.8],
  ["COc1cc2c(cc1O)[C@@H]1Cc3ccc(OC)c(O)c3CN1CC2", "S. aureus strain USA300-0114", 1]
]}

Now consider the entry below.
Given item CCC1(C)CC(=O)NC(=O)C1 [Bemegride] , the value recorded as its fold induction at 50 µM is 0.7

---

Let's look at some molecules and their measured fold induction at 50 µM.
- System: K. pneumoniae
- measurement-protocol: AK assay 384-well format, Prestwick library screening
- Type: cell-based, Klebsiella pneumoniae
- assay-context: Klebsiella pneumoniae, 3 h; 50 μM final drug concentration; 384-well format; cutoff for positive-scoring molecules 3-fold increase; read-out: AK-based Prestwick Library Screening Results, K. pneumoniae (increase in extracellular AK activity)
Quick one: just the number, no unit, thanks!

fold induction at 50 µM recorded for this molecule, Cc1ccccc1N1C(=O)c2cc(S(N)(=O)=O)c(Cl)cc2NC1C (stereo not drawn) , is 0.6

CC(=O)Nc1nnc(S(N)(=O)=O)s1 [Acetazolamide] yielded fold induction at 50 µM of 0.4

Form: molecule = CCOC(=O)C1=C[C@]2(CC)CCCN3CCc4c(n1c1ccccc41)[C@@H]32 ; fold induction at 50 µM = 0.8

---

- Tested on: E. coli
- measurement-protocol: AK assay 384-well format, Prestwick library screening
- Type: cell-based, Escherichia coli
- assay-context: Escherichia coli, 3 h, read-out: AK-based Prestwick Library Screening Results, E. coli (increase in extracellular AK activity)
Structures can show the parent of a compound that is named as a salt.
recorded-endpoint: fold induction at 50 µM

Measured fold induction at 50 µM, C=CCN1CC[C@]23c4c5ccc(O)c4O[C@H]2C(=O)CC[C@@]3(O)[C@H]1C5 [Naloxone hydrochloride] : 0.9

Just so you know, measured fold induction at 50 µM for CS(=O)(=O)Nc1ccc([N+](=O)[O-])cc1Oc1ccccc1 [Nimesulide] came out at 0.9

Sure, the documented fold induction at 50 µM for C[C@]12CC[C@@H](O)C[C@@H]1CC[C@@H]1[C@@H]2CC[C@]2(C)C(=O)CC[C@@H]12 is 0.6

Short answer for CN[C@H](CC(C)C)C(=O)N[C@H]1C(=O)N[C@@H](CC(N)=O)C(=O)N[C@H]2C(=O)N[C@H]3C(=O)N[C@H](C(=O)N[C@H](C(=O)O)c4cc(O)cc(O)c4-c4cc3ccc4O)[C@H](O)c3ccc(c(Cl)c3)Oc3cc2cc(c3O[C@@H]2O[C@H](CO)[C@@H](O)[C@H](O)[C@H]2O[C@H]2C[C@](C)(N)[C@H](O)[C@H](C)O2)Oc2ccc(cc2Cl)[C@H]1O [Vancomycin hydrochloride] : fold induction at 50 µM was 1.2

---

- Test system: P. aeruginosa
- measurement-protocol: AK assay 384-well format, Prestwick library screening
- Assay type: cell-based, Pseudomonas aeruginosa
- assay-context: Pseudomonas aeruginosa, 3 h; 50 μM final drug concentration; planktonic; cutoff for positive 3-fold increase; read-out: AK-based Prestwick Library Screening Results, P. aeruginosa (fold increase in extracellular AK activity)
Where a name gives a salt, the structure may show the parent alone.
recorded-endpoint: fold induction at 50 µM
Just the number, please.

Below, each entry is followed by its recorded fold induction at 50 µM result.
{"columns": ["compound", "fold induction at 50 µM"],
 "data": [
  ["CCCCC[C@H](O)/C=C/[C@@H]1[C@@H](C/C=C\\CCCC(=O)O)[C@@H](O)C[C@H]1O [Dinoprost trometamol]", 1],
  ["COc1cc([C@@H]2c3cc4c(cc3[C@@H](O[C@@H]3O[C@@H]5CO[C@@H](C)O[C@H]5[C@H](O)[C@H]3O)[C@H]3COC(=O)[C@H]23)OCO4)cc(OC)c1O [Etoposide]", 1],
  ["CC[C@@H]1C(=O)OC[C@@H]1Cc1cncn1C [Pilocarpine nitrate]", 1],
  ["O=C1NCCN1c1ncc([N+](=O)[O-])s1 [Niridazole]", 1.2],
  ["CC[C@H]1CN2CC[C@H]1C[C@H]2[C@H](O)c1ccnc2ccc(OC)cc12 [Hydroquinine hydrobromide hydrate]", 1.2],
  ["CC(=O)Nc1c(I)c(C(=O)N[C@H]2C(O)O[C@H](CO)[C@@H](O)[C@@H]2O)c(I)c(N(C)C(C)=O)c1I (stereo partly shown) [Metrizamide]", 1.2],
  ["O=C1c2ccccc2C(=O)C1c1ccccc1 [Phenindione]", 0.9],
  ["COc1ccc(CN2CCNCC2)c(OC)c1OC [Trimetazidine dihydrochloride]", 1.1]
]}

For reference, reported fold induction at 50 µM for Nc1cc(C(Cl)=C(Cl)Cl)c(S(N)(=O)=O)cc1S(N)(=O)=O [Clorsulon] stands at 1.1

Value of fold induction at 50 µM reported for the compound Cc1ncc(C[n+]2csc(CCO)c2C)c(N)n1 [Thiamine hydrochloride] is 1.3

Quick note, fold induction at 50 µM for CC(=O)N1CCN(c2ccc(OCC3COC(Cn4ccnc4)(c4ccc(Cl)cc4Cl)O3)cc2)CC1 (stereo not shown) [Ketoconazole] landed at 1.1

The compound identified as CC(C)NCC(O)COc1ccc(CCOCC2CC2)cc1 (stereo not shown) [Betaxolol hydrochloride] registered its fold induction at 50 µM at 1.1

Short answer for CN1CCN(CCCN2c3ccccc3Sc3ccc(Cl)cc32)CC1 [Prochlorperazine dimaleate] : fold induction at 50 µM was 1.2

---

Reported fold induction at 50 µM values follow for various compounds
- Tested on: K. pneumoniae
- measurement-protocol: AK assay 384-well format, Prestwick library screening
- Format: cell-based, Klebsiella pneumoniae
- assay-context: Klebsiella pneumoniae, 3 h, 50 μM final drug concentration; planktonic; […]; read-out: AK-based Prestwick Library Screening Results, K. pneumoniae (fold increase in extracellular AK activity)
Structures can show the parent of a compound that is named as a salt.

Solved entries (count: 2):
{"columns": ["compound", "fold induction at 50 µM"],
 "data": [
  ["C=C1[C@@H]2CC[C@H]3[C@]4(C)C[C@H](O[C@@H]5O[C@H](CO)[C@@H](OS(=O)(=O)O)[C@H](OS(=O)(=O)O)[C@H]5OC(=O)CC(C)C)C[C@@H](C(=O)O)[C@H]4CC[C@]3(C2)[C@@H]1O [Atractyloside potassium salt]", 0.6],
  ["Cc1cc2c(C(C)C)c(O)c(O)c(C=O)c2c(O)c1-c1c(C)cc2c(C(C)C)c(O)c(O)c(C=O)c2c1O", 0.3]
]}

Now for another entry.
Record summary for CN(CCCCCCCCCCN(C)C(=O)Oc1cccc([N+](C)(C)C)c1)C(=O)Oc1cccc([N+](C)(C)C)c1 [Demecarium bromide] : reported fold induction at 50 µM = 1

---

- Test system: A. baumannii strain 98-37-09
- measurement-protocol: AK assay 384-well format, Prestwick library screening
- Type: cell-based, Acinetobacter baumannii
- assay-context: Acinetobacter baumannii, 983709, 3 h, planktonic A. baumannii; 50 μM final drug concentration; […]; read-out: AK-based Prestwick library screening result, A. baumannii (fold increase in extracellular AK activity)
Where a name gives a salt, the structure may show the parent alone.
recorded-endpoint: fold induction at 50 µM
Returns: the value as a bare number; no unit string appended.

Examples from the recorded data:
{"columns": ["molecule", "value-measured"],
 "data": [
  ["CC(C)(C)C(=O)OCOC(=O)[C@@H]1N2C(=O)[C@@H](NC(=O)[C@H](N)c3ccccc3)[C@H]2SC1(C)C [Pivampicillin]", 1.8],
  ["CC(=O)OCC(=O)[C@H]1CC[C@H]2[C@@H]3CC[C@H]4C[C@H](O)CC[C@]4(C)[C@H]3C(=O)C[C@]12C [Alfadolone acetate]", 1],
  ["O=S(=O)(O)c1cc(O)ccc1O [Ethamsylate]", 1.2],
  ["O=C(NCNC(=O)NC1C(=O)NC(=O)N1CO)NC1C(=O)NC(=O)N1CO (stereo not drawn) [Imidurea]", 0.8],
  ["CC(C)(C)NC(=O)[C@@H]1C[C@@H]2CCCC[C@@H]2CN1C[C@@H](O)[C@H](Cc1ccccc1)NC(=O)[C@H](CC(N)=O)NC(=O)c1ccc2ccccc2n1 [Saquinavir mesylate]", 1.5]
]}

Proceed to the following item.
Field fold induction at 50 µM (system: A. baumannii strain 98-37-09) for entry O=C(O)CCCc1ccc(N(CCCl)CCCl)cc1 [Chlorambucil] = 0.9
